System: Staphylococcus sp.
Assay: in vitro antibacterial evaluation, MIC by broth dilution
Assay type: cell-based
Details: broth dilution, 18 hours at 35° C.; strain GC 3051
valueKind: MIC Staphylococcus aureus (GC 3051) (µg/mL)
Numbers only, in µg/mL.

CC(c1ccccc1)C1NC(=O)CNC(=O)C(CO)NC(=O)C(C(O)C2CNC(=N)N2C2OC(CO)C(O)C(O)C2O)NC(=O)C(C(O)C2CNC(=N)N2)NC(=O)C(Cc2ccc(OC3OC(CO)C(OC4OC5COC(CC6CCCCC6)OC5C(O)C4O)C(O)C3O)cc2)NC1=O (centres unmarked) [Example 122]: 2

In the following, a different compound is considered.
Enquiry: Can you share its MIC Staphylococcus aureus (GC 3051)? I mean this compound: COc1ccc2cc(COCC3OC(OC4C(CO)OC(Oc5ccc(CC6NC(=O)C(C(C)c7ccccc7)NC(=O)CNC(=O)C(CO)NC(=O)C(C(O)C7CNC(=N)N7C7OC(CO)C(O)C(O)C7O)NC(=O)C(C(O)C7CNC(=N)N7)NC6=O)cc5)C(O)C4O)C(O)C(O)C3O)ccc2c1 (centres unmarked) [Example 230]
Return: 2
